These entries and their values trace back to patent US20020048549A1.

In this section, each of the molecules is paired with its reported Brain % dose/g.
Test: Biodistribution of 99mTc(N)(X)(DTC)+ heterocomplexes in rats
Assay type: in vivo, male Spraque-Dawley rats (SD rats)
Conditions: 1 hr after injection
readout kind: Brain % dose/g

INSERT INTO results (molecule, value) VALUES
  ('CCCN1CC[P+](c2ccccc2)(c2ccccc2)[99Tc-2]2(#[N])([NH]N(C)C(SC)=[S+]2)[P+](c2ccccc2)(c2ccccc2)CC1 [^99mTc(N)(PNP1)(DTC)^+]', '0.019 ± 0.00 % dose/g'),
  ('CSC1=[S+][99Tc-2]2(#[N])([NH]N1C)[P+](c1ccccc1)(c1ccccc1)CCOCC[P+]2(c1ccccc1)c1ccccc1 [^99mTc(N)(POP)(DTC)^+]', '0.019 ± 0.00 % dose/g'),
  ('COCCN1CC[P+](c2ccccc2)(c2ccccc2)[99Tc-2]2(#[N])([NH]N(C)C(SC)=[S+]2)[P+](c2ccccc2)(c2ccccc2)CC1 [^99mTc(N)(PNP2)(DTC)^+]', '0.025 ± 0.00 % dose/g'),
  ('COCCC[P]1(CCCOC)CCN(CCOC)CC[P](CCCOC)(CCCOC)[99Tc+]12(#[N])[NH]N(C)C(SC)=[S]2 [^99mTc(N)(PNP3)(DTC)^+]', '0.014 ± 0.00 % dose/g');

* * *

Assay: Biodistribution of 99mTc(N)(X)(DTC)+ heterocomplexes in rats
Assay type: in vivo, male Spraque-Dawley rats (SD rats)
Details: 4 hr after injection
In this section, each of the molecules is paired with its reported Stomach % dose/g.
readout kind: Stomach % dose/g (% dose/g)

INSERT INTO results (molecule, value) VALUES
  ('COCCN1CC[P+](c2ccccc2)(c2ccccc2)[99Tc-2]2(#[N])([NH]N(C)C(SC)=[S+]2)[P+](c2ccccc2)(c2ccccc2)CC1 [^99mTc(N)(PNP2)(DTC)^+]', 1.220),
  ('CSC1=[S+][99Tc-2]2(#[N])([NH]N1C)[P+](c1ccccc1)(c1ccccc1)CCOCC[P+]2(c1ccccc1)c1ccccc1 [^99mTc(N)(POP)(DTC)^+]', 1.74),
  ('CCCN1CC[P+](c2ccccc2)(c2ccccc2)[99Tc-2]2(#[N])([NH]N(C)C(SC)=[S+]2)[P+](c2ccccc2)(c2ccccc2)CC1 [^99mTc(N)(PNP1)(DTC)^+]', 0.719),
  ('COCCC[P]1(CCCOC)CCN(CCOC)CC[P](CCCOC)(CCCOC)[99Tc+]12(#[N])[NH]N(C)C(SC)=[S]2 [^99mTc(N)(PNP3)(DTC)^+]', 0.485);

* * *

In this section, each of the compounds is paired with its reported Muscle % dose/g.
Test: Biodistribution of 99mTc(N)(X)(DTC)+ heterocomplexes in rats
Assay type: in vivo, male Spraque-Dawley rats (SD rats)
Settings: 4 hr after injection
readout kind: Muscle % dose/g

INSERT INTO measurements (compound, readout_kind, value) VALUES
  ('COCCC[P]1(CCCOC)CCN(CCOC)CC[P](CCCOC)(CCCOC)[99Tc+]12(#[N])[NH]N(C)C(SC)=[S]2 [^99mTc(N)(PNP3)(DTC)^+]', 'Muscle % dose/g', '0.245 ± 0.031 % dose/g'),
  ('COCCN1CC[P+](c2ccccc2)(c2ccccc2)[99Tc-2]2(#[N])([NH]N(C)C(SC)=[S+]2)[P+](c2ccccc2)(c2ccccc2)CC1 [^99mTc(N)(PNP2)(DTC)^+]', 'Muscle % dose/g', '0.08 ± 0.00 % dose/g'),
  ('CSC1=[S+][99Tc-2]2(#[N])([NH]N1C)[P+](c1ccccc1)(c1ccccc1)CCOCC[P+]2(c1ccccc1)c1ccccc1 [^99mTc(N)(POP)(DTC)^+]', 'Muscle % dose/g', '0.067 ± 0.00 % dose/g'),
  ('CCCN1CC[P+](c2ccccc2)(c2ccccc2)[99Tc-2]2(#[N])([NH]N(C)C(SC)=[S+]2)[P+](c2ccccc2)(c2ccccc2)CC1 [^99mTc(N)(PNP1)(DTC)^+]', 'Muscle % dose/g', '0.077 ± 0.01 % dose/g');

* * *

Assay: Biodistribution of 99mTc(N)(X)(DTC)+ heterocomplexes in rats
Format: in vivo, male Spraque-Dawley rats (SD rats)
Details: 2 hr after injection
readout kind: Lung % dose/g

INSERT INTO measurements (compound, value) VALUES
  ('COCCN1CC[P+](c2ccccc2)(c2ccccc2)[99Tc-2]2(#[N])([NH]N(C)C(SC)=[S+]2)[P+](c2ccccc2)(c2ccccc2)CC1 [^99mTc(N)(PNP2)(DTC)^+]', '0.962 ± 0.02 % dose/g'),
  ('CSC1=[S+][99Tc-2]2(#[N])([NH]N1C)[P+](c1ccccc1)(c1ccccc1)CCOCC[P+]2(c1ccccc1)c1ccccc1 [^99mTc(N)(POP)(DTC)^+]', '0.757 ± 0.05 % dose/g'),
  ('COCCC[P]1(CCCOC)CCN(CCOC)CC[P](CCCOC)(CCCOC)[99Tc+]12(#[N])[NH]N(C)C(SC)=[S]2 [^99mTc(N)(PNP3)(DTC)^+]', '0.312 ± 0.2 % dose/g'),
  ('CCCN1CC[P+](c2ccccc2)(c2ccccc2)[99Tc-2]2(#[N])([NH]N(C)C(SC)=[S+]2)[P+](c2ccccc2)(c2ccccc2)CC1 [^99mTc(N)(PNP1)(DTC)^+]', '1.716 ± 0.23 % dose/g');

* * *

Test: Biodistribution of 99mTc(N)(X)(DTC)+ heterocomplexes in rats
Format: in vivo, male Spraque-Dawley rats (SD rats)
Details: 4 hr after injection
In this section, each of the compounds is paired with its reported Liver % dose/g.
readout kind: Liver % dose/g (% dose/g)

INSERT INTO assay_data (compound, readout_kind, value) VALUES
  ('CCCN1CC[P+](c2ccccc2)(c2ccccc2)[99Tc-2]2(#[N])([NH]N(C)C(SC)=[S+]2)[P+](c2ccccc2)(c2ccccc2)CC1 [^99mTc(N)(PNP1)(DTC)^+]', 'Liver % dose/g', 2.604),
  ('COCCC[P]1(CCCOC)CCN(CCOC)CC[P](CCCOC)(CCCOC)[99Tc+]12(#[N])[NH]N(C)C(SC)=[S]2 [^99mTc(N)(PNP3)(DTC)^+]', 'Liver % dose/g', 0.155),
  ('CSC1=[S+][99Tc-2]2(#[N])([NH]N1C)[P+](c1ccccc1)(c1ccccc1)CCOCC[P+]2(c1ccccc1)c1ccccc1 [^99mTc(N)(POP)(DTC)^+]', 'Liver % dose/g', 1.538),
  ('COCCN1CC[P+](c2ccccc2)(c2ccccc2)[99Tc-2]2(#[N])([NH]N(C)C(SC)=[S+]2)[P+](c2ccccc2)(c2ccccc2)CC1 [^99mTc(N)(PNP2)(DTC)^+]', 'Liver % dose/g', 1.784);

* * *

Assay: Biodistribution of 99mTc(N)(X)(DTC)+ heterocomplexes in rats
Format: in vivo, male Spraque-Dawley rats (SD rats)
Conditions: 10 min after injection
In this section, each of the compounds is paired with its reported Spleen % dose/g.
readout kind: Spleen % dose/g (% dose/g)

INSERT INTO measurements (compound, readout_kind, value) VALUES
  ('CSC1=[S+][99Tc-2]2(#[N])([NH]N1C)[P+](c1ccccc1)(c1ccccc1)CCOCC[P+]2(c1ccccc1)c1ccccc1 [^99mTc(N)(POP)(DTC)^+]', 'Spleen % dose/g', 3.538),
  ('COCCN1CC[P+](c2ccccc2)(c2ccccc2)[99Tc-2]2(#[N])([NH]N(C)C(SC)=[S+]2)[P+](c2ccccc2)(c2ccccc2)CC1 [^99mTc(N)(PNP2)(DTC)^+]', 'Spleen % dose/g', 5.334),
  ('CCCN1CC[P+](c2ccccc2)(c2ccccc2)[99Tc-2]2(#[N])([NH]N(C)C(SC)=[S+]2)[P+](c2ccccc2)(c2ccccc2)CC1 [^99mTc(N)(PNP1)(DTC)^+]', 'Spleen % dose/g', 7.237),
  ('COCCC[P]1(CCCOC)CCN(CCOC)CC[P](CCCOC)(CCCOC)[99Tc+]12(#[N])[NH]N(C)C(SC)=[S]2 [^99mTc(N)(PNP3)(DTC)^+]', 'Spleen % dose/g', 0.856);

* * *

Assay: Biodistribution of 99mTc(N)(X)(DTC)+ heterocomplexes in rats
Type: in vivo, male Spraque-Dawley rats (SD rats)
Details: 30 min after injection
readout kind: Lung % dose/g (% dose/g)

INSERT INTO results (compound, readout_kind, value) VALUES
  ('CSC1=[S+][99Tc-2]2(#[N])([NH]N1C)[P+](c1ccccc1)(c1ccccc1)CCOCC[P+]2(c1ccccc1)c1ccccc1 [^99mTc(N)(POP)(DTC)^+]', 'Lung % dose/g', 1.05),
  ('CCCN1CC[P+](c2ccccc2)(c2ccccc2)[99Tc-2]2(#[N])([NH]N(C)C(SC)=[S+]2)[P+](c2ccccc2)(c2ccccc2)CC1 [^99mTc(N)(PNP1)(DTC)^+]', 'Lung % dose/g', 2.089),
  ('COCCC[P]1(CCCOC)CCN(CCOC)CC[P](CCCOC)(CCCOC)[99Tc+]12(#[N])[NH]N(C)C(SC)=[S]2 [^99mTc(N)(PNP3)(DTC)^+]', 'Lung % dose/g', 0.446),
  ('COCCN1CC[P+](c2ccccc2)(c2ccccc2)[99Tc-2]2(#[N])([NH]N(C)C(SC)=[S+]2)[P+](c2ccccc2)(c2ccccc2)CC1 [^99mTc(N)(PNP2)(DTC)^+]', 'Lung % dose/g', 1.015);
